System: A498 renal
assay_name: NCI-60 one-dose screen, 48 h (100 = growth as untreated, 0 = no growth, -100 = all killed)
experimental_conditions: 10 µM unless noted
About 83,000 compounds went through this panel and 20% of them were active in at least one assay; those are over-represented in the sample as a whole.
property: growth (%)
Answers are plain numbers, in %.

In the examples that follow, each entry is paired with its recorded growth.
smiles_str	experimental_system	growth (%)
Cn1c2ccccc2c2c3c(c4c5cc(Br)ccc5n(C)c4c21)C(=O)N(O)C3=O	A498 renal	103
c1cc(OCCN2CCCC2)ccc1CNc1ccc2nc(CCC3CCCCC3)[nH]c2c1	A498 renal	34.2
Cc1c(O)cc(-c2cnc(N/N=C/c3ccccc3)s2)c(O)c1C	A498 renal	-20.4
Nc1c(Cl)cc(/C=C2\C=Cc3ccccc32)cc1Cl	A498 renal	97.6

Continue with the next molecule.
Field: growth (A498 renal). Entry: "Cc1ccc2cnc(N)c(C#Cc3cc(C(=O)Nc4ccc(CN5CCN(C)CC5)c(C(F)(F)F)c4)cnc3C)c2c1"
-75.9

====

Tested on: U251 CNS
assay_name: NCI-60 one-dose screen, 48 h (100 = growth as untreated, 0 = no growth, -100 = all killed)
experimental_conditions: 10 µM unless noted
The panel holds about 83,000 compounds, 20% with a hit somewhere; the sample as a whole holds those more often. Active and inactive are the calls of the source. The calls were made as follows: active = growth percent below 10; inactive = the rest.
property: growth

molecule	growth
Cc1ccc(OCCOCCOCCOCCOCCOc2ccc(C)n(O)c2=S)c(=S)n1O	12.3% (inactive)
C=CC(=O)Nc1cccc(Oc2nccc(Nc3nnc(-c4ccc(Br)cc4)s3)n2)c1	97.5% (inactive)
O=c1cc(CNc2cc(F)cc(F)c2)c2ccc(I)cc2[nH]1	31.8% (inactive)
CCN(CCNc1ccc(C)c2sc3cc(Cl)ccc3c(=O)c12)CC(C)(C)O	46.3% (inactive)
Cn1c2ccccc2c2c3c(c4c5cc(Br)ccc5n(C)c4c21)C(=O)N(O)C3=O	3.06% (active)

// each molecule listed below needs its growth
1. Cc1c2ncccc2nc2[nH]c3ccc(OCCN(C)C)cc3c12
2. O=S(=O)(Nc1cc(Sc2nc3ccccc3s2)c(O)c2ccccc12)c1ccc2ccccc2c1

1: 20.3% (inactive); 2: 86.6% (inactive)

// each molecule listed below needs its growth
1. O=C(Nc1ccc(Oc2cccc(Cl)c2)c(Cl)c1)c1cccnn1
2. CN1CC(c2ccc(Br)cc2)C(C(=O)c2ccc(Br)cc2)C12C(=O)Nc1ccccc12 (stereo not drawn)
3. CN(C)c1ccc([C@@H](C(=O)Nc2cccc([N+](=O)[O-])c2)N(C(=O)c2cc3ccccc3[nH]2)c2cccc([N+](=O)[O-])c2)cc1
4. COC(=O)c1sccc1-c1cc(O)c(C(=O)Nc2ccccc2)s1
5. NS(=O)(=O)c1ccc(C(=O)N=Nc2c(O)[nH]c3ccc(Cl)cc23)cc1

1: 76.7% (inactive); 2: 82.3% (inactive); 3: 88.8% (inactive); 4: 101% (inactive); 5: 99.7% (inactive)

====

Task for the reader: assign each of the following compounds its reported growth.
System: HCT-116 colon
assay_name: NCI-60 one-dose screen, 48 h (100 = growth as untreated, 0 = no growth, -100 = all killed)
experimental_conditions: 10 µM unless noted
Compounds without any hit were thinned out: in the full panel of roughly 83,000, 20% have a hit.
Give bare numbers, in %.

In the examples that follow, each entry is paired with its recorded growth.
compound	experimental_system	assay_value
Clc1cccc(C2Cc3cnccc3-c3[nH]c4ccncc4c32)c1 (stereo not given)	HCT-116 colon	32.5
C=C1CC[C@@H]2C(C)(C)[C@H](O)CC[C@@]2(C)[C@@H]1COc1ccc2ccc(=O)oc2c1	HCT-116 colon	64.1
CN(C)c1ccc(/C=C2\C=C(c3nc4ccccc4s3)OC2=O)cc1	HCT-116 colon	100
O=C(NCCN1CCOCC1)OCc1ccc2c(Cl)cc(Cl)c(O)c2n1	HCT-116 colon	39.1
COc1ccc(C(c2cc(OC)c(OC)c(OC)c2)N2CCCCC2)cc1 (stereo not given)	HCT-116 colon	29.1

// each compound listed below needs its growth
1. CN1CC(c2ccc(Br)cc2)C(C(=O)c2ccc(Br)cc2)C12C(=O)Nc1ccccc12 (stereo not given)
2. CCN(CC)CCOc1ccc2c(-c3ccccc3)c(-c3ccc(OC)cc3)c(=O)oc2c1
3. CCCCNC(=O)c1ccc2c(c1)nc(-c1ccccc1)n2C1CCCCC1
4. COc1cc(/C=C/C(=O)c2cccc(-n3cc(-c4ccc(Cl)cc4)[nH]c3=O)c2)ccc1O
5. COc1cc2c(cc1OCCCN1CCN(C(=S)SCCC(C#N)(c3ccccc3)c3ccccc3)CC1)N=C[C@@H]1CCCN1C2=O

1: 39.7; 2: 30; 3: 93.1; 4: 21.5; 5: -93.5

// each compound listed below needs its growth
1. COC1/C=C/OC2(C)Oc3c(C)c(O)c4c(O)c(c(/C=N/N(c5ccccc5)c5ccccc5)c(O)c4c3C2=O)NC(=O)C(C)=C/C=C/C(C)C(O)C(C)C(O)C(C)C(OC(C)=O)C1C (stereo not given)
2. Cc1cccc(NC(=O)N/C(N)=N/c2nc3ccccc3s2)c1
3. COc1cc(C=C2C(=O)NC(=S)NC2=O)cc(CN2CCCC2)c1O
4. Fc1cc2[nH]ncc2c2c3c(c(-c4cn[nH]c4C(F)(F)F)nc12)CCCC3

[38.7, 23.8, 113, 1.05]

// each compound listed below needs its growth
1. Fc1cccc(CNc2c3ccccc3nc3ccccc23)c1
2. O=C(NNc1nc2cc(F)ccc2n2c(CN3CCOCC3)ccc12)c1ccccc1
3. CN(C)c1ccc(C(=S)c2ccc(N(C)C)cc2)cc1
4. O=CCCCOCc1ccccc1
5. COc1cccc(-c2cn3nc(-c4cn(C)c5ccccc45)sc3n2)c1
6. CCN1C(=O)N(c2ccccc2)C2NC(=S)N(/N=C/C=C/c3ccccc3OC)C21 (stereo not given)

1: 13.4; 2: 0.232; 3: 57.8; 4: 105; 5: 91.7; 6: 9.02

====

Test system: TK-10 renal
assay_name: NCI-60 one-dose screen, 48 h (100 = growth as untreated, 0 = no growth, -100 = all killed)
experimental_conditions: 10 µM unless noted
About 83,000 compounds went through this panel and 20% of them were active in at least one assay; those are over-represented in the sample as a whole.
property: growth (%)
Answers are plain numbers, in %.

In the examples that follow, each entry is paired with its recorded growth.
compound	experimental_system	growth, %
CCCCO[C@@H]1C=C2[C@H]3CC(C)(C)C(=O)C[C@]3(C(=O)O[C@@H]3O[C@H](CO[C@@H]4O[C@H](CO)[C@@H](OC5OC(C)C(O)C(O)C5O)[C@H](O)[C@H]4O)[C@@H](O)[C@H](O)[C@H]3O)CC[C@@]2(C)[C@]2(C)CC[C@H]3C(C)(C)C(=O)CC[C@]3(C)[C@@H]12 (stereo partly drawn)	TK-10 renal	61.6
Cc1cccc(NC(=O)Cn2cc(CN3CCN(c4ccnc5cc(Cl)ccc45)CC3)nn2)c1	TK-10 renal	102
Nc1ncccc1O	TK-10 renal	108
NC(=O)c1ccccc1OCC(=O)Nc1ccc(Cl)c(Cl)c1	TK-10 renal	143
O=C(O)CCCCCCCCCCN1C(=O)/C(=C2/C(=O)N(CC(=O)O)c3ccc(Br)cc32)SC1=S	TK-10 renal	128

// each compound listed below needs its growth
1. COc1ccc2cc(-c3nc4ccc(C)cn4c3NCc3ccco3)c(=O)[nH]c2c1
2. CCNC(=O)N1CCc2c(Br)c3c(c(OC)c2C1Cc1ccc(OC)cc1)OCO3 (stereo not drawn)
3. COc1cc2c(c(OC)c1OC)CCC(c1cccc(C(=O)Nc3ccc(Br)cc3)c1)O2 (stereo not drawn)

1: 71; 2: 65.6; 3: 77.4

====

Test system: HOP-62 NSCLC
assay_name: NCI-60 one-dose screen, 48 h
experimental_conditions: 10 µM unless noted
Compounds without any hit were thinned out: in the full panel of roughly 83,000, 20% have a hit. Activity calls are given as the source filed them. Rule for the calls: active = growth percent below 10; inactive = the rest.
Select the matching outcome among active, inactive

Examples with answers:
smiles_str	qualitative_label
O=S(=O)(NCCNc1nccc(-c2c(-c3ccc(F)c(O)c3)nc3sccn23)n1)c1ccc(Cl)cc1	inactive
O=C1O[C@@H](c2ccccc2Cl)[C@@H]2c3cc4c(cc3CCN12)OCO4	inactive
CCCOC(=O)Nc1nc2ccc(SCC)cc2s1	inactive
c1cc(OCCN2CCCCC2)ccc1CNc1ccc2nc(CCC3CCCCC3)[nH]c2c1	inactive
O=C(C[C@]1(O)C(=O)Nc2ccc(Br)cc21)c1ccco1	inactive

Each compound tested received a call. Report the one for "COc1ccc(N/N=C/c2cn(-c3ccc(C(=O)O)cc3)nc2-c2cc3ccccc3oc2=O)cc1" .
inactive

Each compound tested received a call. Report the one for "COC(=O)[C@]1(C)CCC[C@]2(C)[C@H]3C[C@@H]4[C@H]5[C@@H]6CC/C(=N\OCC/C(N)=N/O)[C@H]5[C@@]3(CC[C@H]21)CC4(C(C)C)O6" .
inactive

Each compound tested received a call. Report the one for "CN1CCOCCN(C)Cc2ccc3ccc(cc3c2)CN(C)CCOCCN(C)Cc2ccc3ccc(cc3c2)C1" .
inactive

Each compound tested received a call. Report the one for "Cn1c(=O)c2[nH]c(SC/C(=N/O)c3ccc(Br)cc3)nc2n(C)c1=O" .
active

Each compound tested received a call. Report the one for "CC1(C)N=C(N)N=C(N)N1c1ccc(S(=O)(=O)Nc2nccs2)cc1" .
inactive

Each compound tested received a call. Report the one for "C=C(C)[C@@H]1CC[C@]2(C(=O)N3CCNCC3)CC[C@]3(C)[C@H](CC[C@@H]4[C@@](C)(CCC(=O)N5CCNCC5)[C@H](C(=C)C)CC[C@]43C)[C@@H]12" .
inactive

Each compound tested received a call. Report the one for "Oc1c(I)cc(I)cc1CN(Cc1ccccn1)Cc1ccccn1" .
inactive

Each compound tested received a call. Report the one for "Cc1nc2ccccc2c(/C=C/c2ccc(F)cc2)c1C(=O)/C=C/c1ccccc1" .
active

Each compound tested received a call. Report the one for "COc1ccc(Oc2ccc(/C=C/C(=O)c3cc4ccccc4oc3=O)cc2)cc1" .
inactive

Each compound tested received a call. Report the one for "N#Cc1c(-c2ccccc2)cc(-c2ccccc2)n(CCCCC(=O)NO)c1=O" .
inactive

Each compound tested received a call. Report the one for "COCCn1cc(-c2nc(-c3cn(CCOC)c4ncccc34)cs2)c2cc(F)ccc21" .
inactive

Each compound tested received a call. Report the one for "CN1C(=O)/C(=C/c2ccc(C(=O)Nc3ncc(Cc4cccc(C(F)(F)F)c4)s3)cc2)SC1=S" .
inactive

Each compound tested received a call. Report the one for "Clc1ccc2nn3c4ccccc4c(OCCN4CCOCC4)nc3c2c1" .
inactive

Each compound tested received a call. Report the one for "CCOC(=O)c1c(NC(=O)c2ccccc2)sc2c3c(ccc12)OCN(C)C3" .
inactive
